# Target or test system: SpAbp1-D1
# Assay name: SPOT peptide array binding signal intensity (averaged, normalized) (arbitrary units (background-subtracted, floor 0; scale differs between SH3 domains)); higher = stronger binding of the SH3 domain to the peptide
// reported SPOT peptide array binding signal intensity per item
Field format: numeric only.

Name the reported SPOT peptide array binding signal intensity value associated with the binder RLPAPPPPPRRGPAP 69

Name the reported SPOT peptide array binding signal intensity value associated with the binder LKRITSPPLPPRADS 118

Name the reported SPOT peptide array binding signal intensity value associated with the binder SSTPTTPERPKRKSG 85

Name the reported SPOT peptide array binding signal intensity value associated with the binder KDKSRPPRPPPKPLH 528

Name the reported SPOT peptide array binding signal intensity value associated with the binder TKFRISLGLPVGAIM 68

Name the reported SPOT peptide array binding signal intensity value associated with the binder GKLKHIPRRPYEIER 11

Name the reported SPOT peptide array binding signal intensity value associated with the binder NILKRRPLKLEAPSK 64.5

Name the reported SPOT peptide array binding signal intensity value associated with the binder VGFRLALKFPSRITG 658

Name the reported SPOT peptide array binding signal intensity value associated with the binder QQNRPLPQLPNRNNR 17

Name the reported SPOT peptide array binding signal intensity value associated with the binder NFKRLLPRDPSEKSS 21

More entries:
Name the reported SPOT peptide array binding signal intensity value associated with the binder ALFRLSFFFPLDPAY 303

Name the reported SPOT peptide array binding signal intensity value associated with the binder RPPRPPPKPLHLRTE 2570

Name the reported SPOT peptide array binding signal intensity value associated with the binder NLKKRPPTAPQRKIS 2030
